# maps each entry to its IC50
Test system: L1210
Assay: Cytotoxicity against mouse L1210 cells
Assay type: functional, cell-based
// return numeric value only (unit: µg/mL, not printed)

Consider the worked cases shown below.
[[record]]
compound = "COC(CC1OC(=O)CC(O)C/C=C/C(=O)C(C)C(OC)C(=O)NC(=O)c2coc(n2)-c2coc(n2)/C=C/CCC1C)C(C)CCC(=O)C(C)C(C/C=C/N(C)C=O)OC (centres undefined) [HALISHIGAMIDE B]"
recorded_number = 4.4

[[record]]
compound = "CO[C@@H](C[C@@H]1OC(=O)C[C@@H](O)C[C@H](N)CC(=O)[C@H](C)[C@H](OC)c2coc(n2)-c2coc(n2)-c2coc(n2)/C=C/CC[C@H]1C)[C@@H](C)CCC(=O)[C@H](C)[C@@H](C/C=C/N(C)C=O)OC [HALISHIGAMIDE A]"
recorded_number = 0.0036

[[record]]
compound = "COC(=O)c1coc(-c2coc(/C=C/CCC(C)C(CC(OC)C(C)CCC(=O)C(C)C(C/C=C/N(C)C=O)OC)OC(=O)CC(O)C/C=C/C(=O)C(C)C(OC)C(N)=O)n2)n1 (centres undefined) [HALISHIGAMIDE C]"
recorded_number = 5.2


Next item in the queue.
Query block: Give the reported value of IC50 for this record: COC(=O)c1coc(/C=C/CCC(C)C(CC(OC)C(C)CCC(=O)C(C)C(C/C=C/N(C)C=O)OC)OC(=O)CC(O)C/C=C/C(=O)C(C)C(OC)c2coc(C(N)=O)n2)n1 (centres undefined) [HALISHIGAMIDE D]
Result block: 1.1

Data origin: ChEMBL document CHEMBL1145697
